Ref: ChEMBL document CHEMBL5113430

TARGET: UniProtKB P27338
MEASUREMENT_PROTOCOL: Inhibition of recombinant MAO-B (unknown origin) expressed in baculovirus infected BTI cells assessed as reduction in 4-hydroxyquinoline level using kynuramine as a substrate at 1 uM incubated for 20 mins by discontinuous fluorimetric assay relative to control
REPORTED_CONDITIONS: read-out: INH
The compounds listed here are annotated with their inhibition at 1 µM.
Kindly write the number and append the unit.

The cases that follow already have their inhibition at 1 µM on record.
* C#CCN(Cc1ccccc1)C1c2cccc(OC)c2OCC1(C)C (centres undefined) | 14.7%
* C#CCN(Cc1ccccc1)C1c2ccccc2OCC1(C)C (centres undefined) | 2.9%
* C#CCNC1c2cccc(OC)c2OCC1(C)C (centres undefined) | 13.8%

stdin: Output inhibition at 1 µM of CC1(C)COc2ccc3ccccc3c2C1=O
stdout: 5.1%

====

The molecules listed here are annotated with their Ki.
TARGET: Cholinesterase (Equus caballus, UniProt P81908)
Sequence (P81908 whole entry): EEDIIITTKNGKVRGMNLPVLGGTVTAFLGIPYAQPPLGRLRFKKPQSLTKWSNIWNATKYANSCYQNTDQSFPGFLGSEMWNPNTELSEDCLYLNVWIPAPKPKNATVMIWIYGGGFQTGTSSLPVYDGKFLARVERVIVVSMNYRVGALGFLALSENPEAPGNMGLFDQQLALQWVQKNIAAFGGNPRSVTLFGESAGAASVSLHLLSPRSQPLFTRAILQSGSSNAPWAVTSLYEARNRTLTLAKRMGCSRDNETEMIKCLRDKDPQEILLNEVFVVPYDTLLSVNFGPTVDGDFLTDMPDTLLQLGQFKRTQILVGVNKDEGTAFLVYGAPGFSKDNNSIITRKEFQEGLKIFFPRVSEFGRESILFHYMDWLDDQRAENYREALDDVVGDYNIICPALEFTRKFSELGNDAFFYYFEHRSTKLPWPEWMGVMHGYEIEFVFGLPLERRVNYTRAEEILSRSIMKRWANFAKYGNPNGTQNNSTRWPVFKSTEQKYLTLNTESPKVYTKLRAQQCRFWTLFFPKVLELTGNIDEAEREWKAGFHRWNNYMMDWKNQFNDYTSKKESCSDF
MEASUREMENT_PROTOCOL: Inhibition of Equine serum BuChE assessed as inhibitory constants for binding the enzyme-substrate complex using S-butyrylthiocholine iodide as a substrate by Cornish-Bowden plot analysis
Kindly write the number and append the unit.

- CC1(C)COc2c(ccc3cccnc23)C1O (centres undefined): 13.7 µM

stdin: Output Ki of COc1cccc2c1OCC(C)(C)C2N (centres undefined)
stdout: 19.1 µM

stdin: Output Ki of CC1(C)COc2cc3ccccc3cc2C1N (centres undefined)
stdout: 11 µM

stdin: Output Ki of CC1(C)COc2ccc3ccccc3c2C1=O
stdout: 6.7 µM

====

TARGET: Amine oxidase [flavin-containing] B (Homo sapiens, UniProt P27338)
Sequence (P27338 whole entry): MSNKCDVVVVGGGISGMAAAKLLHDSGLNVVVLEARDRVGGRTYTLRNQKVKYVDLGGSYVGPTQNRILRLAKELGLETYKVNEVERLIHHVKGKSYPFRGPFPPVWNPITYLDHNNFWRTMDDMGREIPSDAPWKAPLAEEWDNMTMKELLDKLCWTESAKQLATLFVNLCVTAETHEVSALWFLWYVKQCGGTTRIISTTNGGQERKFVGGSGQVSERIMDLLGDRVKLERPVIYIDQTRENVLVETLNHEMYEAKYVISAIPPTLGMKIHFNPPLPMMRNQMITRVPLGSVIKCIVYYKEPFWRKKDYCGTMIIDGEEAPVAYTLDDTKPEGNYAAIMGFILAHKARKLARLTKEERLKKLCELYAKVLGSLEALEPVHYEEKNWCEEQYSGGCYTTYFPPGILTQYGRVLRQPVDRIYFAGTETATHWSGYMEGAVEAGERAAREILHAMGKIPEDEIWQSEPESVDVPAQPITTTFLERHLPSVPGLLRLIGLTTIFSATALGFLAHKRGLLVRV
MEASUREMENT_PROTOCOL: Inhibition of recombinant MAO-B (unknown origin) expressed in baculovirus infected BTI cells assessed as reduction in 4-hydroxyquinoline level using kynuramine as a substrate at 1 uM incubated for 20 mins by discontinuous fluorimetric assay relative to control
REPORTED_CONDITIONS: read-out: INH
ASSAY_ENDPOINT: inhibition at 1 µM (%)
Express your answer in %, writing the number without its unit.

stdin: Output inhibition at 1 µM of CC1(C)COc2c(ccc3cccnc23)C1=O
stdout: 4.8

stdin: Output inhibition at 1 µM of CC1(C)COc2cc3ccccc3cc2C1=O
stdout: 27.7

stdin: Output inhibition at 1 µM of CC1(C)COc2ccccc2C1O (stereo not given)
stdout: 8

stdin: Output inhibition at 1 µM of COc1cccc2c1OCC(C)(C)C2N (stereo not given)
stdout: 4.3

stdin: Output inhibition at 1 µM of CC1(C)COc2ccccc2C1=O
stdout: 9.2

stdin: Output inhibition at 1 µM of NC1CCOc2ccccc21 (stereo not given)
stdout: 4.8

stdin: Output inhibition at 1 µM of CC1(C)COc2ccc3ccccc3c2C1N (stereo not given)
stdout: 2.7

stdin: Output inhibition at 1 µM of CC1(C)COc2cc3ccccc3cc2C1N (stereo not given)
stdout: 7.5

====

TARGET: UniProt:P21397
Sequence (P21397 whole entry): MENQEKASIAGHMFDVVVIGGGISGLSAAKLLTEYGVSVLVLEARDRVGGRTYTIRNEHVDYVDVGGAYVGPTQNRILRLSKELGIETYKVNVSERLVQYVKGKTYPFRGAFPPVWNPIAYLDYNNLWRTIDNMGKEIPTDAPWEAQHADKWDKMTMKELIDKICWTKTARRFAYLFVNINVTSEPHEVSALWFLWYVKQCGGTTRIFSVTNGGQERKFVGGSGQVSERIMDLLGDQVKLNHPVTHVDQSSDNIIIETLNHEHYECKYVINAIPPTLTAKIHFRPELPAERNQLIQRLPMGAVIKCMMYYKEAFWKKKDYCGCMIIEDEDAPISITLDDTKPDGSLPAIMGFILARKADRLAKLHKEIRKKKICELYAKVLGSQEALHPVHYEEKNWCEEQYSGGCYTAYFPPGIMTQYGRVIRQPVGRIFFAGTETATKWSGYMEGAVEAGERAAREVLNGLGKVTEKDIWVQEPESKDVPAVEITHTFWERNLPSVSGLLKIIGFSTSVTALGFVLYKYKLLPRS
MEASUREMENT_PROTOCOL: Inhibition of recombinant MAO-A (unknown origin) expressed in baculovirus infected BTI cells assessed as reduction in 4-hydroxyquinoline level using kynuramine as a substrate at 1 uM incubated for 20 mins by discontinuous fluorimetric assay relative to control
The compounds listed here are annotated with their inhibition at 1 µM.
Express your answer in %, writing the number without its unit.

The cases that follow already have their inhibition at 1 µM on record.
- CCOc1cc(C#N)cc2c1OCC(C)(C)C2=O: 20.5
- C#CCNC1c2cc(C)ccc2OCC1(C)C (stereo not given): -9.4
- CC1(C)COc2ccccc2C1N (stereo not given): -3.8

stdin: Output inhibition at 1 µM of CC1(C)COc2ccc(F)cc2C1O (stereo not given)
stdout: 16.5

stdin: Output inhibition at 1 µM of CC1(C)COc2cc3ccccc3cc2C1N (stereo not given)
stdout: 13.3

stdin: Output inhibition at 1 µM of C#CCN(Cc1ccccc1)C1c2cccc(OC)c2OCC1(C)C (stereo not given)
stdout: 4.3

stdin: Output inhibition at 1 µM of NC1CCOc2ccccc21 (stereo not given)
stdout: -0.7

====

TARGET: Acetylcholinesterase (Electrophorus electricus, UniProt O42275)
Sequence (O42275 whole entry): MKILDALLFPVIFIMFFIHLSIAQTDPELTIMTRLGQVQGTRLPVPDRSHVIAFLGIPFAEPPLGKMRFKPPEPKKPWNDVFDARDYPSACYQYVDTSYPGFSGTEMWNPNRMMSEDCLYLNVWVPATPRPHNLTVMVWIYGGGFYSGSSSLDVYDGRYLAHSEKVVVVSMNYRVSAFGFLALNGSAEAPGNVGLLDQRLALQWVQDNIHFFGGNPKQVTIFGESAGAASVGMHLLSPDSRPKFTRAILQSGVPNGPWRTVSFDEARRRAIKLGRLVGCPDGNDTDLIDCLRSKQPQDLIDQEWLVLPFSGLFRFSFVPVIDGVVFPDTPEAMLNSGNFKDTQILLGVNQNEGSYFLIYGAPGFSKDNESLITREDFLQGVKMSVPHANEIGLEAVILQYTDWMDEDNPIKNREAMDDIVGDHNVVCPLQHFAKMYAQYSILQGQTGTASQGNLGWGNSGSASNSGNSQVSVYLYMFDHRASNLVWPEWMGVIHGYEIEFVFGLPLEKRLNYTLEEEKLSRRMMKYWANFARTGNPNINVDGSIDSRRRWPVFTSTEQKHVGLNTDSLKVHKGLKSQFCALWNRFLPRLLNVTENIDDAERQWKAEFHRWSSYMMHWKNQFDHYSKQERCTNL
MEASUREMENT_PROTOCOL: Inhibition of electric eel AChE using […] as a substrate and measured upto 180 sec by DTNB based Ellman's method
ASSAY_ENDPOINT: IC50 (µM)
Express your answer in µM, writing the number without its unit.

stdin: Output IC50 of O=C1CC(OCCCCCSC(=S)N2CCCCC2)Oc2ccccc21 (stereo unspecified)
stdout: 0.1

====

The molecules listed here are annotated with their log10 of IC50.
TARGET: Cholinesterase (Equus caballus)
MEASUREMENT_PROTOCOL: Inhibition of Equine serum BuChE using S-butyrylthiocholine iodide as a substrate and measured for 125 sec by DTNB based Ellman's method
All values: base-10 log of IC50 in µM.

The cases that follow already have their log10 of IC50 on record.
- COc1cccc2c1OCC(C)(C)C2N (stereo not drawn): 0.88
- CC1(C)COc2ccc3ccccc3c2C1O (stereo not drawn): 1.52
- CC1(C)COc2cc3ccccc3cc2C1N (stereo not drawn): 0.95
- CC1(C)COc2c(OC(F)(F)F)cccc2C1=O: 0.63
- CC1(C)COc2ccc3ccccc3c2C1N (stereo not drawn): 1.72
- CC1(C)COc2ccc3ccccc3c2C1=O: 0.46

stdin: Output log10 of IC50 of CC1(C)COc2ccc(F)cc2C1=O
stdout: 1.52

stdin: Output log10 of IC50 of Cc1ccc2c(c1)C(N)C(C)(C)CO2 (stereo not drawn)
stdout: 1.83

stdin: Output log10 of IC50 of CC1(C)COc2ccccc2C1O (stereo not drawn)
stdout: 1.60

stdin: Output log10 of IC50 of CC1(C)COc2c(ccc3cccnc23)C1=O
stdout: 0.81

stdin: Output log10 of IC50 of CC1(C)COc2ccccc2C1=O
stdout: 1.63

stdin: Output log10 of IC50 of CC1(C)COc2c(ccc3cccnc23)C1O (stereo not drawn)
stdout: 0.70

stdin: Output log10 of IC50 of CC1(C)COc2cc3ccccc3cc2C1=O
stdout: 0.49

stdin: Output log10 of IC50 of CC1(C)COc2cc(F)ccc2C1O (stereo not drawn)
stdout: 1.26

stdin: Output log10 of IC50 of CC1(C)COc2ccccc2C1N (stereo not drawn)
stdout: 1.58

stdin: Output log10 of IC50 of CCOc1cc(C#N)cc2c1OCC(C)(C)C2O (stereo not drawn)
stdout: 0.86

stdin: Output log10 of IC50 of COc1cccc2c1C(=O)C(C)(C)CO2
stdout: 1.08

stdin: Output log10 of IC50 of CC1(C)COc2cc(F)c(F)cc2C1O (stereo not drawn)
stdout: 1.45

stdin: Output log10 of IC50 of CC1(C)COc2ccc(C#N)cc2C1O (stereo not drawn)
stdout: 1.26

stdin: Output log10 of IC50 of CC1(C)COc2cc3ccccc3cc2C1O (stereo not drawn)
stdout: 1.70

====

The molecules listed here are annotated with their Ki.
TARGET: Cholinesterase (Equus caballus, UniProt P81908)
MEASUREMENT_PROTOCOL: Inhibition of Equine serum BuChE assessed as inhibitory constants for binding the free enzyme using S-butyrylthiocholine iodide as a substrate by Cornish-Bowden plot analysis
Express your answer in µM, writing the number without its unit.

The cases that follow already have their Ki on record.
- CC1(C)COc2c(ccc3cccnc23)C1O (centres undefined): 7.2
- CC1(C)COc2ccc3ccccc3c2C1=O: 2
- CC1(C)COc2cc3ccccc3cc2C1N (centres undefined): 18

Kindly consider the entry below.
stdin: Output Ki of COc1cccc2c1OCC(C)(C)C2N (centres undefined)
stdout: 9

====

The compounds listed here are annotated with their inhibition at 1 µM.
TARGET: Amine oxidase [flavin-containing] B (Homo sapiens, UniProt P27338)
MEASUREMENT_PROTOCOL: Inhibition of recombinant MAO-B (unknown origin) expressed in baculovirus infected BTI cells assessed as reduction in 4-hydroxyquinoline level using kynuramine as a substrate at 1 uM incubated for 20 mins by discontinuous fluorimetric assay relative to control
REPORTED_CONDITIONS: read-out: INH
Express your answer in %, writing the number without its unit.

The cases that follow already have their inhibition at 1 µM on record.
- CC1(C)COc2ccccc2C1N (configuration not stated): 3.7
- COc1cccc2c1C(=O)C(C)(C)CO2: 5.9
- CC1(C)COc2ccc(F)cc2C1O (configuration not stated): 8.3

stdin: Output inhibition at 1 µM of CCOc1cc(C#N)cc2c1OCC(C)(C)C2=O
stdout: 4.7

stdin: Output inhibition at 1 µM of COc1cccc2c1C(O)C(C)(C)CO2 (configuration not stated)
stdout: 5.3

stdin: Output inhibition at 1 µM of C#CCNC1c2cc(C)ccc2OCC1(C)C (configuration not stated)
stdout: -6.8

stdin: Output inhibition at 1 µM of C#CCNC1c2ccccc2OCC1(C)C (configuration not stated)
stdout: 11.6
